# Tested on: TK-10
# procedure.text: NCI tumour cell line growth inhibition, 48 h
Activity calls are given as the source filed them. Cut-off read from the data, not from the text of the source: active = GI50 up to about 1.1 µM and inactive = higher.
Entries and their measured GI50 follow.
readout.label: GI50

compound: Cn1c(-c2cccc([N+](=O)[O-])c2)[n+](C)c2ccccc21
value.observed: > 100 µM (inactive)
--
compound: CN(C)CC1CCCC1=O (configuration not stated)
value.observed: 2.96 µM (inactive)
--
compound: C1CN2N3CCCC23C1 (configuration not stated)
value.observed: > 100 µM (inactive)
--
compound: O=C(O)CNS(=O)(=O)c1ccc(NC(=O)c2ccc(F)cc2)cc1
value.observed: > 100 µM (inactive)
--
compound: CCCCCCCCCCC(O)CCCCCCC(=O)O (configuration not stated)
value.observed: 65.9 µM (inactive)
--
compound: CC[C@H]1C=CCC[C@@]2(C[C@@H]3CC[C@@H]4[C@H](C(=O)OCCCCCCCCCCCCCCCC(=O)N(CCCN)CCCCN)[C@]5(CCC[C@@H](C)O5)NC(=[N+]34)N2)O1
value.observed: 1.23 µM (inactive)
--
compound: COc1cc(NCCC(=O)O)c2ncccc2c1
value.observed: > 100 µM (inactive)
--
compound: COC(=O)C1(C(=O)OC)N=C(C)OC1c1ccccc1O (configuration not stated)
value.observed: > 100 µM (inactive)
--
compound: O=C(NC1=C(Cl)C(=O)c2ccccc2C1=O)c1ccccc1
value.observed: 23 µM (inactive)
--
compound: C/C=C(\C)C(=O)OC1C(C)=C2C(C1OC(=O)CCCC)C(C)(OC(C)=O)CC(OC(=O)CCCC)C1(O)C2OC(=O)C1(C)O (configuration not stated)
value.observed: 13 µM (inactive)
--
compound: Nc1nc(Cl)cc(OCC2(CO)CCCCC2)n1
value.observed: > 100 µM (inactive)
--
compound: O=c1[nH]nc(-c2ccccc2)n1O
value.observed: > 100 µM (inactive)

---

Entries and their measured GI50 follow.
# Test system: DU-145
# procedure.text: NCI tumour cell line growth inhibition, 48 h
The source made the active and inactive calls. Cut-off read from the data, not from the text of the source: active = GI50 up to about 1.1 µM and inactive = higher.

compound: Nc1nc(Cl)cc(OCC2(CO)CCCCC2)n1
GI50: > 100 µM (inactive)
--
compound: O=[N+]([O-])c1cccnc1NCC1(CO)CC(Cc2ccccc2)C1 (centres undefined)
GI50: > 100 µM (inactive)
--
compound: COc1cc(C2c3cc4c(cc3OC(NNC(N)=O)C2C)OCO4)cc(OC)c1OC (centres undefined)
GI50: 0.585 µM (active)
--
compound: C/C(=N\O)c1ccc2cc(Br)c3ccccc3c2c1
GI50: 39.4 µM (inactive)
--
compound: CN(C)Cc1cc(Cl)c(O)c(CN(C)C)c1
GI50: > 100 µM (inactive)
--
compound: Cc1ccc(NC(=O)/C(=N\NC(N)=O)c2c(O)c3ccccc3[nH]c2=O)cc1
GI50: > 100 µM (inactive)
--
compound: COc1ccc(-n2c(C)nc3ccc(NC4OCC(O)C(O)C4O)cc3c2=O)cc1 (centres undefined)
GI50: > 100 µM (inactive)
--
compound: Oc1cc2c3c(c1)CCCN3CCC2
GI50: > 10 µM (inactive)
--
compound: CNc1ccc2c(c1)[C@@]1(C)c3ccccc3[C@@H](C2)N1C
GI50: 39.5 µM (inactive)
--
compound: CC(C)=CCC[C@@H](C)C1=C(Nc2ccccc2F)C(=O)C(C)=C(O)C1=O
GI50: 9.35 µM (inactive)
--
compound: CC(C)(Oc1ccccc1)C(=O)Sc1c(-c2ccccc2)c(=O)n(-c2ccccc2)c(=S)n1-c1ccccc1
GI50: 95.9 µM (inactive)
--
compound: O=C(CC(C(=O)c1cccs1)c1ccc2c(c1)OCO2)c1ccccc1 (centres undefined)
GI50: > 100 µM (inactive)
--
compound: C=CC(=O)C#CC#CC/C=C\CCCCCCC
GI50: > 20.6 µM (inactive)
--
compound: Cc1ccc2nc3c(=O)[nH]c(=O)nc-3n(C)c2c1C
GI50: > 100 µM (inactive)
--
compound: COc1cc(-c2oc3c(OC)cc(OC)c(O)c3c(=O)c2OC)cc(OC)c1OC
GI50: 32.7 µM (inactive)
--
compound: COc1cc(CO)c(CC(=O)NCCCc2ccccc2)cc1OC
GI50: > 100 µM (inactive)
--
compound: COC(=O)Cc1c([C@H]2[C@H](CC(=O)OC)c3ccccc3N2C(=O)C(F)(F)F)[nH]c2ccccc12
GI50: 63 µM (inactive)
--
compound: COC(=O)[C@@H](NS(=O)(=O)CC12CCC(CC1)C2(C)C)C(C)(C)C
GI50: > 100 µM (inactive)
--
compound: COc1ccc(-c2c(C#N)c(O)n(C3OC(CO)C(O)C(O)C3O)c(=S)c2C#N)cc1 (centres undefined)
GI50: > 100 µM (inactive)
--
compound: O=C(O)CC(Cc1ccccc1Cl)C(=O)O (centres undefined)
GI50: > 100 µM (inactive)
--
compound: BrP(NC1CCCCCC1)(c1ccccc1)(c1ccccc1)c1ccccc1
GI50: 8.26 µM (inactive)
--
compound: C(=C\Nc1ccc(Oc2ccccc2)cc1)/C=N/c1ccc(Oc2ccccc2)cc1
GI50: 20.1 µM (inactive)
--
compound: Oc1cc(O)c2c(c1)O[C@H](c1ccc(O)c(O)c1)[C@@H](O)C2
GI50: > 100 µM (inactive)
--
compound: COc1ccc(C(C2C(=O)N(C)C(=O)N(C)C2=O)C(F)(F)C(=O)N(C)C)cc1 (centres undefined)
GI50: > 100 µM (inactive)
--
compound: COc1ccc(C(=O)c2cc(OC)c(OC)c(OC)c2)cc1OC
GI50: 3.92 µM (inactive)
--
compound: O=S(=O)(O)c1ccc(O)c(/N=N/c2c(O)ccc3ccccc23)c1
GI50: > 100 µM (inactive)
--
compound: CC1=NC(=Cc2cccc(Cl)c2)C(=O)N1n1c(-c2ccccc2)nc2ccccc2c1=O
GI50: 38.9 µM (inactive)
--
compound: CCCCCCCCCCCC[C@@H](O)[C@H]1CC[C@H]([C@H](O)CC[C@H](O)[C@@H]2CC[C@@H](CCCCCCCC3=C[C@H](C)OC3=O)O2)O1
GI50: 7.55 µM (inactive)
--
compound: O=C1NC(=S)NC(=O)C1C(c1ccccc1[N+](=O)[O-])C1C(=O)NC(=S)NC1=O.c1ccncc1
GI50: > 100 µM (inactive)
